assay: physchem; settings: octanol/water
Group membership follows logP per the scheme low (below 4), intermediate (4 to below 5), high (5 or more)

>>> print(df.to_string())
                                    molecule   label_value
 0  C[S+](C)CC[C@H](N)C(=O)O [METHYLMETHIONINE SULFONIUM CHLORIDE]           low
 1                        Cc1ccc(C)c2ccccc12  intermediate
 2                              Clc1ccccc1Cl           low
 3                                   C1CCCC1           low
 4                              CC(Cl)(Cl)Cl           low
 5                                    CCCCCC           low
 6  O=C(O)CCCC[C@@H]1SC[C@@H]2NC(=O)N[C@@H]21           low
 7               Clc1cc(Cl)c(-c2ccccc2)cc1Cl          high
 8                                     CCCCC           low
 9                          Cc1cc(C)c(C)cc1C  intermediate
10  Nc1ncnc2c1ncn2[C@@H]1O[C@H](COP(=O)(O)O)[C@@H](O)[C@H]1O [ADENOSINE PHOSPHATE]           low
11                          CC(C)(C)c1ccccc1  intermediate
12  c1ccc2c(c1)-c1cccc3c1c-2cc1ccccc13 [BENZO[B]FLUORANTHENE]          high
13                               CCCCCCCCCCC          high
14                       Cc1cc(O)c2ccccc2c1O           low
15                        Cc1cc(C)c(C)c(C)c1  intermediate
16                                  C1CCCCC1           low
17                c1ccc2cc3cc4ccccc4cc3cc2c1          high
18  c1ccc2c(c1)c1cccc3ccc4cccc2c4c31 [BENZO[E]PYRENE]          high
19              CCc1c2ccccc2cc2c1ccc1ccccc12          high
20                              Brc1ccccc1Br           low
21                        Cc1cccc2c(C)cccc12  intermediate
22                         NC1=C2NCN=C2N=CN1           low
23                               CCCc1ccccc1           low
24                                    C=CCCC           low

----------
experiment: physchem; conditions: octanol/water
Cut-off 5 on logP, inclusive. At or above means true; below means false.

>>> df
                                    compound  label_value
 0                            Brc1ccc(Br)cc1        false
 1        c1cc2cccc3c4cccc5cccc(c(c1)c23)c54         true
 2               Cc1c2ccccc2cc2ccc3ccccc3c12         true
 3                  Clc1ccc2c(ccc3ccccc32)c1         true
 4                             Cc1cccc(C)c1C        false
 5               Cc1c2ccccc2cc2c1ccc1ccccc12         true
 6  FC(Cl)(Cl)Cl [TRICHLOROMONOFLUOROMETHANE]        false
 7                   Cc1ccc(C)cc1 [P-XYLENE]        false
 8            Cc1c(C)c2c3ccccc3ccc2c2ccccc12         true
 9                          CCc1cccc2ccccc12        false
10                   CCSCC [DIETHYL SULFIDE]        false
11              c1ccc2cc3c(ccc4ccccc43)cc2c1         true
12                Clc1ccccc1 [CHLOROBENZENE]        false
13                               Cc1ccccc1Cl        false
14  c1ccc2cc3c(cc2c1)-c1cccc2cccc-3c12 [BENZO(K)FLUORANTHENE]         true
15               Cc1cccc2ccc3cc4ccccc4cc3c12         true
16                        Cc1ccc2cc(C)ccc2c1        false
17                                   CCCCCCl        false
18                                     C=CCC        false
19  c1ccc2c3c(ccc2c1)-c1cccc2cccc-3c12 [BENZO(J)FLUORANTHENE]         true
20                     CCCl [ETHYL CHLORIDE]        false
21                                       CSC        false
22                CCCCc1ccccc1 [BUTYLBENZYL]        false
23         c1ccc2c(c1)Cc1ccccc1-2 [FLUORENE]        false
24               Cc1cc2c3ccccc3ccc2c2ccccc12         true
25                       CCCCCCCCCC [DECANE]         true
26                   C1=CCCC1 [CYCLOPENTENE]        false
27      CCC(C)(C)c1ccccc1 [tert-Amylbenzene]        false

----------
assay: physchem; details: octanol/water
RECORDED METRIC: logP

>>> df
                                mol  recorded_metric  observed
0     Clc1cc(Cl)c(-c2ccccc2Cl)cc1Cl             logP      6.88
1   Cc1ncc(C[n+]2csc(CCO)c2C)c(N)n1             logP     -3.93
2      c1ccc2c(c1)c1ccccc1c1ccccc21             logP      5.66
3                        Cc1ccccc1C             logP      3.44
4            c1ccc2c(c1)ccc1ccccc12             logP      4.49
5  c1cc2c3c(c4ccc5ccccc5c4cc3c1)CC2             logP      6.42
6           Cc1ccc2c(ccc3ccccc32)c1             logP      5.14

----------
experiment: physchem; conditions: octanol/water
RECORDED METRIC: logP

                                molecule  observed
 0          c1ccc2c(c1)ccc1c3ccccc3ccc21      5.66
 1                                  CCCC      2.81
 2              Clc1cc(Cl)c(Cl)c(Cl)c1Cl      5.71
 3                   c1ccc(-c2ccccc2)cc1      4.03
 4                    Clc1cc(Cl)cc(Cl)c1      4.28
 5                      Cc1ccc(C)c(C)c1C      4.74
 6           Cc1cc2ccccc2c2ccc3ccccc3c12      6.31
 7                             Cl/C=C/Cl      1.51
 8                      Cc1cc2ccccc2cc1C      4.61
 9           Clc1ccc(-c2ccccc2Cl)c(Cl)c1      6.17
10  ClC(Cl)(Cl)Cl [CARBON TETRACHLORIDE]      2.88
11                        CC(C)CC(C)(C)C      4.54
12    c1ccc2c(c1)ccc1cc3ccc4ccccc4c3cc12      6.84
13                          Cc1cccc(C)c1      3.44

----------
test: physchem; details: octanol/water
Cut-off 4 on logP, inclusive. At or above means true (1); below means false (0).

                                    compound  label_value
 0      Clc1ccc(Cl)cc1 [1,4-DICHLOROBENZENE]    false (0)
 1                                     CCCCl    false (0)
 2                   Clc1cccc(Cl)c1-c1ccccc1     true (1)
 3                         CCCCCCC [HEPTANE]     true (1)
 4                                 CCCCC(C)C     true (1)
 5                        Clc1ccc(Cl)c(Cl)c1     true (1)
 6             Clc1cc(Cl)c(-c2ccccc2)c(Cl)c1     true (1)
 7                          Clc1cccc(Cl)c1Cl     true (1)
 8                                  CCCC(C)C    false (0)
 9     ClC(Cl)=C(Cl)Cl [TETRACHLOROETHYLENE]    false (0)
10  ClC(Cl)C(Cl)Cl [1,1,2,2-TETRACHLOROETHANE]    false (0)
11      c1ccc2c(c1)ccc1cc3c(ccc4ccccc43)cc12     true (1)
12                             Cc1cccc(Cl)c1    false (0)
13  c1ccc2c(c1)Cc1c-2ccc2ccccc12 [BENZO(A)FLUORENE]     true (1)
